B1: glmS ribozyme (parent)
chain: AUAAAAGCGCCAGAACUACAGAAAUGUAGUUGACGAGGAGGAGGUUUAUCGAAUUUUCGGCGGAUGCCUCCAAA

Variants of: B1
Assay: self-cleavage kobs at 40 uM GlcN6P; higher = faster cleavage; RNA array
Settings: with glucosamine-6-phosphate
Fewer inactive variants are shown than the library holds.
readoutLabel: self-cleavage kobs at 40 uM GlcN6P

Notebook: A36C G41U G44C U55G U56C C61G , self-cleavage kobs at 40 uM GlcN6P read as < 1e-05 s⁻¹

For G32C G37C the variant record lists self-cleavage kobs at 40 uM GlcN6P as < 1e-05 s⁻¹

The variant listed as C11G G43U A48U C61G A64G shows self-cleavage kobs at 40 uM GlcN6P equal to < 1e-05 s⁻¹

Record G29A A39U . Reported self-cleavage kobs at 40 uM GlcN6P: 0.000107 s⁻¹

The variant C11A C34G G60U A64G showed self-cleavage kobs at 40 uM GlcN6P equal to < 1e-05 s⁻¹

# variant A15C G32U G60U ; its self-cleavage kobs at 40 uM GlcN6P = < 1e-05 s⁻¹

self-cleavage kobs at 40 uM GlcN6P for A15G U30G is 0.000265 s⁻¹

Noted for A6U A48U C70U : its self-cleavage kobs at 40 uM GlcN6P reads < 1e-05 s⁻¹

For reference, reported self-cleavage kobs at 40 uM GlcN6P for A6G U45A G60C stands at < 1e-05 s⁻¹

The recorded self-cleavage kobs at 40 uM GlcN6P for A36G U54G is < 1e-05 s⁻¹

The reported value for U30A G60U C71U in terms of self-cleavage kobs at 40 uM GlcN6P is < 1e-05 s⁻¹

self-cleavage kobs at 40 uM GlcN6P recorded for this variant, G38U A53C , is < 1e-05 s⁻¹

Entry A15G G40C ; self-cleavage kobs at 40 uM GlcN6P = 0.000151 s⁻¹

Measured self-cleavage kobs at 40 uM GlcN6P of A15C G37U G40C U55G U65C U69C : < 1e-05 s⁻¹

Form field self-cleavage kobs at 40 uM GlcN6P, entry A36C G41U U45G C67G : < 1e-05 s⁻¹

Quick note, self-cleavage kobs at 40 uM GlcN6P for G66C C70U landed at 4.77e-05 s⁻¹

Looking up C16U G41A U56C , I see its self-cleavage kobs at 40 uM GlcN6P listed as < 1e-05 s⁻¹

The variant A12U C34G G40C C50A showed self-cleavage kobs at 40 uM GlcN6P equal to < 1e-05 s⁻¹

// G32A A64G : self-cleavage kobs at 40 uM GlcN6P value = 2.33e-05 s⁻¹

The variant listed as A6G A12U C61U has a reported self-cleavage kobs at 40 uM GlcN6P of < 1e-05 s⁻¹

Short answer for A6G A12G A64U C70U : self-cleavage kobs at 40 uM GlcN6P was < 1e-05 s⁻¹

U45C G63U has a reported self-cleavage kobs at 40 uM GlcN6P of < 1e-05 s⁻¹

Reported self-cleavage kobs at 40 uM GlcN6P ( C16G G59U ) = < 1e-05 s⁻¹

GET /value?item= G35U G51A U54G &field=self-cleavage kobs at 40 uM GlcN6P returns < 1e-05 s⁻¹

Measured self-cleavage kobs at 40 uM GlcN6P of A15U C68A C71A : < 1e-05 s⁻¹

Sure, the documented self-cleavage kobs at 40 uM GlcN6P for C16G G63A is < 1e-05 s⁻¹

The reported value for A39G A53U in terms of self-cleavage kobs at 40 uM GlcN6P is 0.00108 s⁻¹

self-cleavage kobs at 40 uM GlcN6P for G35C A36G G37A A39G U65A is < 1e-05 s⁻¹

Lab note: measured self-cleavage kobs at 40 uM GlcN6P of A53U U65G was 3.59e-05 s⁻¹

For C34U G35U the variant record lists self-cleavage kobs at 40 uM GlcN6P as < 1e-05 s⁻¹

Recorded self-cleavage kobs at 40 uM GlcN6P (variant C11A C34G ): < 1e-05 s⁻¹

Kindly note the recorded self-cleavage kobs at 40 uM GlcN6P for G40A U54C , which is 0.000248 s⁻¹

For this variant ( A12U U46A ), measured self-cleavage kobs at 40 uM GlcN6P is 0.000119 s⁻¹

Lab book: self-cleavage kobs at 40 uM GlcN6P of A12U A42G U47A C68U noted as 0.000117 s⁻¹

Noted for A33U C70A : its self-cleavage kobs at 40 uM GlcN6P reads < 1e-05 s⁻¹

Notebook: U55G U57G C67U , self-cleavage kobs at 40 uM GlcN6P read as < 1e-05 s⁻¹

Quick note, self-cleavage kobs at 40 uM GlcN6P for C8A G29C G35A C67G landed at < 1e-05 s⁻¹

So, A6U G35C U54A ? Its self-cleavage kobs at 40 uM GlcN6P was < 1e-05 s⁻¹

Entry under test: U54G C67U . Its self-cleavage kobs at 40 uM GlcN6P was 0.000313 s⁻¹

In plain terms, U31G A53C has a documented self-cleavage kobs at 40 uM GlcN6P of 3.19e-05 s⁻¹

The variant listed as G9U C16U G43U A53U shows self-cleavage kobs at 40 uM GlcN6P equal to < 1e-05 s⁻¹

Per the records, this variant ( G7U G9A U57G C67A ) has self-cleavage kobs at 40 uM GlcN6P equal to < 1e-05 s⁻¹

Value of self-cleavage kobs at 40 uM GlcN6P reported for the variant A14C U46G is 4.79e-05 s⁻¹

self-cleavage kobs at 40 uM GlcN6P in this record for G35U C50U C67G : 0.000272 s⁻¹

Form field self-cleavage kobs at 40 uM GlcN6P, entry G62A G66U : < 1e-05 s⁻¹

self-cleavage kobs at 40 uM GlcN6P in this record for G41U C70A : 0.00288 s⁻¹
